# TARGET OR SYSTEM: human RORγt ligand binding domain (RORγt LBD) (Homo sapiens (Human))
# Sequence (P51449 other isoform, or with tags, fused parts or gaps): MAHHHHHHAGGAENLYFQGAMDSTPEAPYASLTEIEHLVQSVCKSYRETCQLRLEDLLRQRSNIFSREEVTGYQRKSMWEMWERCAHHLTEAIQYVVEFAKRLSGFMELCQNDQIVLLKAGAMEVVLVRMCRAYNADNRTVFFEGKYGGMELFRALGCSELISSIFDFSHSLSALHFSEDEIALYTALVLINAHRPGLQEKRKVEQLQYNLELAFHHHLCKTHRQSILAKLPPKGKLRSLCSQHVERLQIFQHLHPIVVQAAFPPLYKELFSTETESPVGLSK
# PROTOCOL SUMMARY: RORγt ThermoFluor® assay (thermal shift binding)
# RUN PARAMETERS: ThermoFluor® Assay, Kd
pKd: −log10 of the molar value.
ATTRIBUTE MEASURED: pKd

Worked cases, answers included:
CCOC(=O)[C@]1(CNC(=O)c2nn(CC)c(-c3ccc(CC(C)(C)C(F)(F)F)cc3OC(F)F)c2Cl)CC[C@@H](S(C)(=O)=O)CC1    8.00
CCn1nc(C(=O)NC[C@@]2(O)CC[C@@H](S(C)(=O)=O)C[C@@H]2O)c(Cl)c1-c1ccc(CC(C)(C)C(F)(F)F)cc1OC(F)F (single isomer, unassigned)    7.59
CCn1nc(C(=O)NC[C@]2(O)CC[C@@H](S(C)(=O)=O)C[C@H]2O)c(C)c1-c1ccc(C[C@H](C)C(F)(F)F)cc1OC(F)F (stereo in doubt)    8.59

[A] C[C@H](Cc1ccc(-c2c(Cl)c(C(=O)NC[C@]3(O)CC[C@@H](S(C)(=O)=O)CC3)nn2C)c(OC(F)F)c1)C(F)(F)F (single isomer, unassigned)
[B] CCn1nc(C(=O)NC[C@H]2CC[C@@H](S(C)(=O)=O)CN2)c(Cl)c1-c1ccc(CC(C)(C)C(F)(F)F)cc1OC(F)F (stereo in doubt)
[C] CCn1nc(C(=O)NC[C@]2(O)CC[C@@H](S(C)(=O)=O)CC2)c(Cl)c1-c1ccc([C@@](C)(O)CC(F)(F)F)cc1OC(F)F (single isomer, unassigned)
Arrange the 3 entries by pKd so the values rise. Please respond by ranking the labels in the order requested. C, B, A
(C: 6.64, B: 6.96, A: 8.10)
